Target: DNA-Polymerase-alpha (Homo sapiens, UniProt P09884)
Construct: Die Isolierung der Enzyme und deren Aktivitätsbestimmung erfolgte entsprechend der Methode von Matthes et al; from tissue
Sequence (P09884 1-1462): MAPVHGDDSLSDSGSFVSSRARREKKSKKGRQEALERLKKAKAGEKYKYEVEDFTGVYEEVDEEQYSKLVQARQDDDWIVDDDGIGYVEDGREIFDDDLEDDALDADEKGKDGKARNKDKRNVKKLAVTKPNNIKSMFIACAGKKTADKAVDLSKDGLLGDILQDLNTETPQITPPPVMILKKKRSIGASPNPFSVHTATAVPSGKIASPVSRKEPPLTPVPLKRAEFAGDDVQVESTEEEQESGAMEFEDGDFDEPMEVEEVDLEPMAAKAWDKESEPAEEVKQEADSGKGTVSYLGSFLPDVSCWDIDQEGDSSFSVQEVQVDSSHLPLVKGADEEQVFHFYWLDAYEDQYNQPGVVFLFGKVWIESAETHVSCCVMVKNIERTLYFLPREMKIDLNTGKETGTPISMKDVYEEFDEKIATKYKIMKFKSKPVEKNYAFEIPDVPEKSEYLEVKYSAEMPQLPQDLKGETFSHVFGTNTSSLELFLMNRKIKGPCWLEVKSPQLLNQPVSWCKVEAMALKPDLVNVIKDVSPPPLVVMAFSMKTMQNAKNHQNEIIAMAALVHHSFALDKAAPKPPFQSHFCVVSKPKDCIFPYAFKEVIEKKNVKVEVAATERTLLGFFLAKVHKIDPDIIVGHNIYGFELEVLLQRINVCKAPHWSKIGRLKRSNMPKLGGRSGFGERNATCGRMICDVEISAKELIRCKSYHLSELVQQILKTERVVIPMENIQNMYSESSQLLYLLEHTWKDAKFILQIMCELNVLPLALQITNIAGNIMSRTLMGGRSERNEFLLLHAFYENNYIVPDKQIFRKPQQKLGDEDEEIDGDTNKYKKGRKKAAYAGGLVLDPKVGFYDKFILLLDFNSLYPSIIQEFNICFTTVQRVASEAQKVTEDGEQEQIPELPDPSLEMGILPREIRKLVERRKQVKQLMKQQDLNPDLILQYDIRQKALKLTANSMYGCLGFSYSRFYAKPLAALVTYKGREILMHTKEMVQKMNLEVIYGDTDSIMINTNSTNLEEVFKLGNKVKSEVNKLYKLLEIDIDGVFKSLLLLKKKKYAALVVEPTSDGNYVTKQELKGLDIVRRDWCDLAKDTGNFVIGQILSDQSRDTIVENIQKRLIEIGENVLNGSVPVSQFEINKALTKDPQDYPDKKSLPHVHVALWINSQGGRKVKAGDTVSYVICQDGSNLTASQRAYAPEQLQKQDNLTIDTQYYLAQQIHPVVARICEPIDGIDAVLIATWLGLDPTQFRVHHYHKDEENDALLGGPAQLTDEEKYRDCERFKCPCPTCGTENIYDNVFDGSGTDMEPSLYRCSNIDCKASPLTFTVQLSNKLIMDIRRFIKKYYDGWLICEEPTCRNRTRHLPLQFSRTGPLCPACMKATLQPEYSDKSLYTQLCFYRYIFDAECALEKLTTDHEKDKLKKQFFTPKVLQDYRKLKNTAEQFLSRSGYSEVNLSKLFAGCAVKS
Experiment: Effect of modified nucleoside triphosphates on cellular DNA polymerase alpha
Assay type: biochemical
Settings: read-out: ID₅₀ (µM) DNA-Polymerase- alpha
Readout kind: IC50

> print(dat)
                                   compound                       experimental.target  readout.kind  value.measured
1  Nc1ncnc2c1ncn2[C@H]1C=C[C@@H](COP(=O)(O)OP(=O)(O)OP(=O)(O)O)O1 [ddeATP]  DNA-Polymerase-alpha (Homo sapiens, UniProt P09884)          IC50        > 100 µM
2  Cc1cn([C@H]2C[C@H](Cl)[C@@H](COP(=O)(O)OP(=O)(O)OP(=O)(O)O)O2)c(=O)nc1N [ClMetdCTP]  DNA-Polymerase-alpha (Homo sapiens, UniProt P09884)          IC50        > 200 µM
3  Cc1cn([C@H]2C[C@H](N=[N+]=[N-])[C@@H](COP(=O)(O)OP(=O)(O)OP(=O)(O)O)O2)c(=O)nc1N [N₃MetdCTP]  DNA-Polymerase-alpha (Homo sapiens, UniProt P09884)          IC50        > 200 µM

What does the data say about its IC50? Entry: CCc1cn([C@H]2C[C@H](F)[C@@H](COP(=O)(O)OP(=O)(O)OP(=O)(O)O)O2)c(=O)nc1N [FEtdCTP]
> 200 µM

Next compound up: Nc1nc2c(ncn2[C@H]2C=C[C@@H](COP(=O)(O)OP(=O)(O)OP(=O)(O)O)O2)c(=O)[nH]1 [ddeGTP]
> 150 µM

Next compound up: Cc1cn([C@H]2C=C[C@@H](COP(=O)(O)OP(=O)(O)OP(=O)(O)O)O2)c(=O)nc1N [ddeMetCTP]
> 200 µM

Next compound up: Nc1ccn([C@H]2C=C[C@@H](COP(=O)(O)OP(=O)(O)OP(=O)(O)O)O2)c(=O)n1 [ddeCTP]
> 200 µM
